Reported Euclidean distance values for a set of molecules
# System: HEPG2
# EXPERIMENTAL_PROTOCOL: Euclidean distance of Cell Painting phenotypic profile (signed KS, 77 features) to DMSO centroid (dimensionless distance); 5 or 10 uM (library dependent); higher = stronger phenotypic change vs DMSO (phenoactivity)
# CONDITION: 48 h
Where a name gives a salt, the structure may show the parent alone.
ASSAY_READOUT: Euclidean distance

[[record]]
molecule = "COc1cc(CNC(=O)CCCCC=CC(C)C)ccc1O [Capsaicin(Vanilloid)]"
assay_readout = "Euclidean distance"
observed_value = 0.778

[[record]]
molecule = "C[C@H](CS)C(=O)N1CCC[C@H]1C(=O)O [Captopril]"
assay_readout = "Euclidean distance"
observed_value = 2.08

[[record]]
molecule = "CC(=O)Nc1nc(C)c(-c2ccc(Cl)c(S(=O)(=O)NCCO)c2)s1"
assay_readout = "Euclidean distance"
observed_value = 0.945

[[record]]
molecule = "C=CC(=O)N1C[C@H](Nc2ncnc3[nH]ccc23)CC[C@@H]1C"
assay_readout = "Euclidean distance"
observed_value = 0.582

[[record]]
molecule = "Cc1ccc(Sc2cncc3sc(C(N)=O)cc23)cc1"
assay_readout = "Euclidean distance"
observed_value = 1.24

[[record]]
molecule = "O=C1Nc2ccc(CN3C(=O)CSC3=O)cc2/C1=C/c1cc(CN2CCOCC2)c[nH]1"
assay_readout = "Euclidean distance"
observed_value = 0.385

[[record]]
molecule = "CN1CC2c3ccccc3Oc3ccc(Cl)cc3C2C1 (centres undefined) [Asenapine maleate]"
assay_readout = "Euclidean distance"
observed_value = 1.28

[[record]]
molecule = "O=C1NC(=O)/C(=C/c2cccc(C(F)(F)F)c2)S1"
assay_readout = "Euclidean distance"
observed_value = 0.755

[[record]]
molecule = "CCCC(=O)OCOC(=O)C1=C(C)NC(C)=C(C(=O)OC)C1c1cccc(Cl)c1Cl (centres undefined) [Clevidipine Butyrate]"
assay_readout = "Euclidean distance"
observed_value = 2.16

[[record]]
molecule = "Clc1ccc(CCC(Cn2ccnc2)Sc2c(Cl)cccc2Cl)cc1 (centres undefined) [Butoconazole]"
assay_readout = "Euclidean distance"
observed_value = 1.4

[[record]]
molecule = "Nc1cccc2c1CN(C1CCC(=O)NC1=O)C2=O (centres undefined) [Lenalidomide (CC-5013)]"
assay_readout = "Euclidean distance"
observed_value = 0.639

[[record]]
molecule = "O=[N+]([O-])c1ccc(O)c2ncccc12 [Nitroxoline]"
assay_readout = "Euclidean distance"
observed_value = 1.71

[[record]]
molecule = "CCOC(=O)[C@H]1O[C@@H]1C(=O)N[C@@H](CC(C)C)C(=O)NCCC(C)C [Aloxistatin]"
assay_readout = "Euclidean distance"
observed_value = 0.539

[[record]]
molecule = "C[C@H](NC(=O)Cc1cc(F)cc(F)c1)C(=O)N[C@H](C(=O)OC(C)(C)C)c1ccccc1"
assay_readout = "Euclidean distance"
observed_value = 1.57

[[record]]
molecule = "NS(=O)(=O)c1cc(C(=O)O)c(NCc2ccco2)cc1Cl [Furosemide]"
assay_readout = "Euclidean distance"
observed_value = 0.788

[[record]]
molecule = "Clc1ccc(C(Cn2ccnc2)OCc2csc3c(Cl)cccc23)c(Cl)c1 (centres undefined) [Sertaconazole nitrate]"
assay_readout = "Euclidean distance"
observed_value = 0.627

[[record]]
molecule = "O=C(O)/C=C/c1cnc[nH]1 [Urocanic acid]"
assay_readout = "Euclidean distance"
observed_value = 0.554

[[record]]
molecule = "Cc1ccc2nc(NCCN)c3ncc(C)n3c2c1"
assay_readout = "Euclidean distance"
observed_value = 2.99

[[record]]
molecule = "COC(=O)[C@H]1[C@H]2C[C@@H]3c4[nH]c5cc(OC)ccc5c4CCN3C[C@H]2C[C@@H](OC(=O)c2cc(OC)c(OC)c(OC)c2)[C@@H]1OC [Reserpine]"
assay_readout = "Euclidean distance"
observed_value = 0.642


====

# Tested on: A549
# EXPERIMENTAL_PROTOCOL: Euclidean distance of Cell Painting phenotypic profile (signed KS, 77 features) to DMSO centroid (dimensionless distance); 5 or 10 uM (library dependent); higher = stronger phenotypic change vs DMSO (phenoactivity)
# CONDITION: 48 h
Structures can show the parent of a compound that is named as a salt.
ASSAY_READOUT: Euclidean distance

[[record]]
molecule = "Nc1nc2ccc(OC(F)(F)F)cc2s1"
assay_readout = "Euclidean distance"
observed_value = 0.891

[[record]]
molecule = "NCCCC[C@H](N[C@@H](CCc1ccccc1)C(=O)O)C(=O)N1CCC[C@H]1C(=O)O [Lisinopril dihydrate]"
assay_readout = "Euclidean distance"
observed_value = 0.621

[[record]]
molecule = "COc1cccc2c1C(=O)c1c(O)c3c(c(O)c1C2=O)C[C@@](O)(C(=O)CO)C[C@@H]3O[C@H]1C[C@H](N)[C@H](O[C@@H]2CCCCO2)[C@H](C)O1"
assay_readout = "Euclidean distance"
observed_value = 4.43

[[record]]
molecule = "Nc1nc(O)c2ncn(CCC(CO)CO)c2n1"
assay_readout = "Euclidean distance"
observed_value = 0.334

[[record]]
molecule = "COC(=O)C1=C(C)NC(C)=C(C(=O)OC(C)(C)CN(C)CCC(c2ccccc2)c2ccccc2)C1c1cccc([N+](=O)[O-])c1 (stereo unspecified)"
assay_readout = "Euclidean distance"
observed_value = 2.38

[[record]]
molecule = "Nc1nc(Cl)nc2c1ncn2[C@H]1C[C@H](O)[C@@H](CO)O1"
assay_readout = "Euclidean distance"
observed_value = 3.28

[[record]]
molecule = "CN(C)CCCN1c2ccccc2Sc2ccccc21 [Promazine hydrochloride]"
assay_readout = "Euclidean distance"
observed_value = 0.965

[[record]]
molecule = "CC[N+](CC)(CC)CCOc1cccc(OCC[N+](CC)(CC)CC)c1OCC[N+](CC)(CC)CC [Gallamine Triethiodide]"
assay_readout = "Euclidean distance"
observed_value = 0.878

[[record]]
molecule = "C[N+](C)(C)NCCC(=O)[O-] [Mildronate]"
assay_readout = "Euclidean distance"
observed_value = 1.05

[[record]]
molecule = "CO[C@@H]1[C@@H](O[C@@H]2O[C@H](C)[C@@H](O[C@H]3C[C@@](C)(O)[C@@H](OC(=O)CC(C)C)[C@H](C)O3)[C@H](N(C)C)[C@H]2O)[C@@H](CC=O)C[C@@H](C)[C@@H](O)/C=C/C=C/C[C@@H](C)OC(=O)C[C@H]1O"
assay_readout = "Euclidean distance"
observed_value = 1.1

[[record]]
molecule = "CC(C)(c1ccc(O)cc1)c1ccc(O)cc1"
assay_readout = "Euclidean distance"
observed_value = 1.21

[[record]]
molecule = "CC(NC(=O)c1ccccc1/N=C/c1c(O)ccc2ccccc12)c1ccccc1 (stereo unspecified)"
assay_readout = "Euclidean distance"
observed_value = 0.747

[[record]]
molecule = "Cn1c(=O)c2[nH]cnc2n(C)c1=O"
assay_readout = "Euclidean distance"
observed_value = 1.06

[[record]]
molecule = "COCCNc1cc(NC(=O)N2CCCc3cc(CN4CCN(C)CC4=O)c(C=O)nc32)ncc1C#N"
assay_readout = "Euclidean distance"
observed_value = 1.34

[[record]]
molecule = "COc1ccc(S(=O)(=O)N(C(C)=O)c2ccccc2/C=C/c2cc[n+]([O-])cc2)cc1"
assay_readout = "Euclidean distance"
observed_value = 2.94

[[record]]
molecule = "CCCCC1=NC2(CCCC2)C(=O)N1Cc1ccc(-c2ccccc2S(=O)(=O)Nc2noc(C)c2C)c(COCC)c1"
assay_readout = "Euclidean distance"
observed_value = 0.599


====

# System: HEPG2
# EXPERIMENTAL_PROTOCOL: Euclidean distance of Cell Painting phenotypic profile (signed KS, 77 features) to DMSO centroid (dimensionless distance); 5 or 10 uM (library dependent); higher = stronger phenotypic change vs DMSO (phenoactivity)
# CONDITION: 48 h
Could you label it class 1 if measured Euclidean distance is 1 or higher, and class 0 otherwise?

[[record]]
molecule = "CC(C)N(CCCCOCC(=O)NS(C)(=O)=O)c1cnc(-c2ccccc2)c(-c2ccccc2)n1"
measurement_target = "HEPG2"
group_label = "class 0"

[[record]]
molecule = "O=C(Nc1ccc(-c2ccnc(Nc3ccc(N4CCOCC4)cc3)n2)cc1)C1CCCN1 (stereo not drawn)"
measurement_target = "HEPG2"
group_label = "class 1"

[[record]]
molecule = "Cc1cnc(NC(=O)C2=C(O)c3ccccc3S(=O)(=O)N2C)s1"
measurement_target = "HEPG2"
group_label = "class 1"

[[record]]
molecule = "COC(=O)c1ccc2c(c1)NC(=O)/C2=C(\\Nc1ccc(N(C)C(=O)CN2CCN(C)CC2)cc1)c1ccccc1"
measurement_target = "HEPG2"
group_label = "class 1"

[[record]]
molecule = "C[N+]1(C)[C@@H]2CC[C@H]1C[C@@H](OC(=O)C(O)c1ccccc1)C2 (stereo partly drawn) [Homatropine Methylbromide]"
measurement_target = "HEPG2"
group_label = "class 0"

[[record]]
molecule = "Cc1cc(CC(C)CC(C)(C)C)n(O)c(=O)c1 (stereo not drawn)"
measurement_target = "HEPG2"
group_label = "class 1"

[[record]]
molecule = "COc1ccc(-c2cnc3c(-c4cccc5ncccc45)cnn3c2)cc1"
measurement_target = "HEPG2"
group_label = "class 0"

